All values here come from patent US20250011448A1.

- TARGET_OF_ASSAY: T1, human TNFR2 expressed on cells (Expi293 cells stably expressing huTNFR2) (human, UniProt P20333 23-461)
- T1 construct: whole, on cells; Also used here as the target of the Treg assay (native TNFR2 on human primary Treg cells); also called huTNFR2 expressed cells; Expi293-TNFR2 cells
- T1 sequence (looked up): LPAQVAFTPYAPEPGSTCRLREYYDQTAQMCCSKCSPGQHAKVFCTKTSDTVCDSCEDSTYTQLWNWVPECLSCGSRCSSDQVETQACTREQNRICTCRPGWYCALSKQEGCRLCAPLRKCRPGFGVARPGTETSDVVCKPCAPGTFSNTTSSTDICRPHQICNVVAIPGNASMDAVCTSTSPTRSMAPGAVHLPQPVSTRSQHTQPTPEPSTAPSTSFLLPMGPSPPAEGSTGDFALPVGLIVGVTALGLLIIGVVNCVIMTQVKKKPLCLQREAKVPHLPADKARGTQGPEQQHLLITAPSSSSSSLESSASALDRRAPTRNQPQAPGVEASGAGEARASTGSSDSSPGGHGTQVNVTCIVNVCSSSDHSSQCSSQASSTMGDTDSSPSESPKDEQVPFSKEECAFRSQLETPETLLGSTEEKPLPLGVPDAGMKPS
- TEST: flow cytometry: inhibition of binding of 10 nM Alexa Fluor 647 human TNFα to Expi293 cells expressing huTNFR2
MEASUREMENT_KIND: pIC50
On this scale, pIC50 is minus log10 of a concentration expressed in M (mol/L).

# annotated cases, reported pIC50 shown
29G3 chimeric anti-TNFR2 antibody (antibody, V domains shown, Chimeric: mouse variable domains with human constant regions, made as recombinant IgG1) VH: EVMLVESGGASVKPGGSLKLSCAASGFTFSNFAMSWVRQTPEKRLEWVATIRSGDNYSYYSDNVKGRFTISRDNARNTLYLQMSSLRSKDTSIYYCARNWDKVFDYWGQGTTLTVSS VL: DIVLTQSPASLAVSLGQRATISCRASESVDSYGYSFMHWYQQKPGQPPKLLIYRASNLKSGIPARFSGSGSRTDFTLTINPVEADDVATYYCQQSNEDHTFGGGTKLEIK : 9.56
15H10 chimeric anti-TNFR2 antibody (antibody, V domains shown, Chimeric: mouse variable domains with human constant regions, made as recombinant IgG1) VH: DVQLQESGPGLVTPSQSLSLTCSVTGYSITSGYYWNWIRQFPGNKLEWMGYITYDGNNNYNPSLKSRFSITRDTSKNQFFLKLNSVTSEDTATYYCARGDYGDSAMDYWGQGTSVTVSS VL: EIVLTQSPAITAASLGQKVTITCSASSGVNYMHWYQQKSGTSPKPWIYEISKLASGVPARFSGSGSGTSYSLTISSMEAEDAAIYYCQQWNYPLITFGAGTKVELK : 8.47

Here's the next entry for you.
Looking up 11C1 chimeric anti-TNFR2 antibody (antibody, V domains shown, Chimeric: mouse variable domains with human constant regions, made as recombinant IgG1) VH: DVQLRESGPGLVTPSQSLSLTCSVTGYSITSGYYWNWIRQIPGNKLEWMGYITYDGNNNYDPSLKNRISITRDTSKNQFFLTLNSVTSEDTATYYCARGDYGDSAMDYWGQGTSVTVSS VL: EIVLTQSPAITAASLGQKVTITCSASSSVSYMHWYQQKSGTSPKPWIYEISKLASGVPARFSGSGSGTSYSLIISSMEAEDAAIYYCQQWNYPLITFGAGTKLELK , I see its pIC50 listed as 8.60
